System: asexual-blood-stage (ABS) P. falciparum
Assay: SYBR green-based P. falciparum asexual growth inhibition assay
Assay type: cell-based
Conditions: Plasmodium falciparum; 3D7, 72 h; read-out: P. falciparum asexual-blood-stage EC50
Procedure: The Plasmodium falciparum reference strain 3D7 used throughout this study was cultured as previously described ([39]). […] Our SYBR green asexual-growth assay was based on a previous report ([45]). […] The 96-well plate was equilibrated to room temperature for 1 h before fluorescence was determined on a TECAN Infinite Pro 200 microplate reader using green fluorescent protein (GFP) filters (excitation, 485 nm; emission, 535 nm). […]
property measured: EC50 (µM)
Report the value in µM with no unit label.

Incoming: Return reported EC50; argument: O=C(Nc1ccc(F)c(-c2nc3cc(-c4ccccc4)cnc3[nH]2)c1)N1CCCC1
Outgoing: 13.6

###

target: P. falciparum translation (P. falciparum lysate); assay: P. falciparum in vitro translation (PfIVT) assay, lysate-based, luciferase reporter; type: biochemical, Plasmodium falciparum; conditions: Pathogen Box hits; 8-point; weighted mean ± SD of two technical replicates; read-out: IC50 value (μM) PfIVT
property measured: IC50 (µM)
Report the value in µM with no unit label.

{"columns": ["compound", "IC50 [µM]"],
 "data": [
  ["CC(=O)Oc1ccccc1C(=O)Nc1ncc([N+](=O)[O-])s1 [MMV688991, nitazoxanide, reference compound]", 0.02]
]}

Incoming: Return reported IC50; argument: COc1cc(C2=NCCN2)ccc1-n1cc(-c2cccc(C3=NCCN3)c2)nn1
Outgoing: 16

Incoming: Please answer likewise for O=C(Nc1c(O)cccc1-c1nc2c(C(=O)O)cccc2o1)c1cc(-c2ccccc2)on1
Outgoing: 0.4

Incoming: Please answer likewise for COc1cc(C2=NCCN2)cc2cc(-c3ccc(C4=NCCN4)cc3)oc12
Outgoing: 2.8

###

molecular target: P. falciparum translation (P. falciparum lysate); experiment: P. falciparum in vitro translation (PfIVT) assay, lysate-based, luciferase reporter; format: biochemical, Plasmodium falciparum; conditions: read-out: PfIVT IC50 (text)
property measured: IC50
In your response, the unit should come after the numeric value.

Incoming: Return reported IC50; argument: O=C(Nc1c(O)cccc1-c1nc2c(C(=O)O)cccc2o1)c1cc(-c2ccccc2)on1 [MMV676008]
Outgoing: 40 nM

###

molecular target: P. falciparum translation (P. falciparum lysate); assay: P. falciparum in vitro translation (PfIVT) assay, lysate-based, luciferase reporter; format: biochemical, Plasmodium falciparum; conditions: Pathogen Box hits; 8-point; weighted mean ± SD of two technical replicates; read-out: IC50 value (μM) PfIVT
property measured: IC50

{"columns": ["compound", "IC50"],
 "data": [
  ["Cc1ccc2c(c1C)NC(=O)C21NN=C(c2ccccc2)S1 (centres unmarked)", "0.03 µM"],
  ["O=C(NCCN1CCCC1)c1cc(NCCCCN2CCC(F)(F)CC2)nc2ccc(Cl)cc12", "0.3 µM"],
  ["O=C(Nc1nc(-c2ccccn2)cs1)c1cncn1-c1ccccc1", "> 30 µM"],
  ["Cc1c[nH]c(CCNC(=O)c2cc(-c3ccc(Cl)cc3)cs2)n1", "16 µM"]
]}

Turning now to a further record.
Incoming: Return reported IC50; argument: COc1ccc(C2=NCCN2)cc1-c1cn(-c2cccc(C3=NCCN3)c2)nn1
Outgoing: 1.8 µM

###

biological target: UniProtKB Q7M4K1; test: Luciferase counterscreen (false-positive counterscreen); format: biochemical, click beetle; settings: Pandemic Box hits; weighted mean ± SD of two technical replicates; read-out: IC50 value (μM) Counterscreen
Sequence (Q7M4K1 entry or part of it): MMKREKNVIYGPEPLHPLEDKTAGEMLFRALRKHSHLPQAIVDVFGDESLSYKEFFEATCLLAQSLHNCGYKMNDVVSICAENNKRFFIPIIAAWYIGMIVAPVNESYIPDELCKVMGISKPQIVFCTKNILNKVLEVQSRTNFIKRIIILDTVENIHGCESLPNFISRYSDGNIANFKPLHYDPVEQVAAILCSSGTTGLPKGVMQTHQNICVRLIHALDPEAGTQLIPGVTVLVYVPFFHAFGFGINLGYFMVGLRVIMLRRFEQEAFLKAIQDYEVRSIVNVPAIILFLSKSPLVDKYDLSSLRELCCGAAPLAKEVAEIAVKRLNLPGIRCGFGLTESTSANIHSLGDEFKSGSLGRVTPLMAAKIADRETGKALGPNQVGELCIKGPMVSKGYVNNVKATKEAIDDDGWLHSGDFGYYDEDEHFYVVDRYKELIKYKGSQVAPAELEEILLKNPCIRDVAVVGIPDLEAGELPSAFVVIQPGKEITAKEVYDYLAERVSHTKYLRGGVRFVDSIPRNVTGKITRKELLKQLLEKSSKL
Recorded IC50, one value per entry.
Report the value in µM with no unit label.

The following compounds have reported results that may help.
{"columns": ["compound", "unit text", "IC50"],
 "data": [
  ["Clc1cccc(-c2nnc(-c3ccccc3)o2)c1", "µM", 10],
  ["O=C(O)c1cc(-c2ccc(Br)cc2)nc2ccc(Cl)cc12", "µM", 3.2],
  ["CC(C)Nc1ncnc2c1cnn2-c1ccc(Cl)cc1", "µM", 7.6],
  ["Cc1oncc1C(=O)Nc1ccc(C(F)(F)F)cc1", "µM", 0.5],
  ["O=C(Nc1nnc(-c2ccccc2)o1)c1ccc(F)cc1", "µM", 1.3]
]}

Incoming: Return reported IC50; argument: CCOc1ccc(C(=O)NCCc2ccccc2)cc1
Outgoing: 3.8

Incoming: Please answer likewise for C(=C\c1nc2ccccc2[nH]1)/c1ccc2c(c1)OCO2
Outgoing: 1.7

Incoming: Please answer likewise for CC(Cc1ccccc1)C(=O)Nc1ccc(Cl)cc1C(=O)O (stereo not shown)
Outgoing: 0.5
